B1: HDV Ribozyme (parent)
chain: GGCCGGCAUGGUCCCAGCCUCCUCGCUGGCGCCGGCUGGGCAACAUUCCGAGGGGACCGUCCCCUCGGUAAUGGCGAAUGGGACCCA

- Variants of: B1
- experiment-summary: self-cleavage, relative activity (ratio to wild type); higher = more cleavage; co-transcriptional
observation-type: self-cleavage

Sample records with self-cleavage:
{"columns": ["mutation-notation", "self-cleavage"],
 "data": [
  ["G10A G55C", 0.734],
  ["G2A U37G", 0],
  ["G55C A83U", 0.575],
  ["G17C C66A", 0.262],
  ["C33U C85G", 0.494],
  ["C22A C61U", 0.237],
  ["G2A C7A", 0],
  ["G1C U72C", 0.111],
  ["U20G G38U", 0.0573],
  ["G50C C58G", 0.796]
]}

Which value of self-cleavage has been reported for C24G A83G in the records?
0.153

Taken from the RNAGym collection of RNA variant scans (doi:10.7554/elife.80360).
